# targetUnderTest: UniProt P10938
# testDescription: In vitro inhibitory activity against bovine phenylethanolamine N-methyl-transferase
pKi: −log10 of the molar value.
Binary call on pKi: YES from 3 upward, NO beneath that.

Worked examples follow.
- molecule: "COc1cccc2c1C1CC(N)C2C1 (stereo not drawn)"
  labelValue: "NO"
- molecule: "COc1cccc2c1C1CC2CC1N (stereo not drawn)"
  labelValue: "NO"
- molecule: "NC1CC2CC1c1cccc(O)c12 (stereo not drawn)"
  labelValue: "NO"

Is pKi at least 3? Consider NC1CCc2cc(O)ccc2C1 (stereo not drawn)
YES

Is pKi at least 3? Consider COc1ccc2c(c1)CC1(N)CCC2C1 (stereo not drawn)
NO

Is pKi at least 3? Consider NC12CCC(C1)c1c(O)cccc1C2 (stereo not drawn)
NO

Is pKi at least 3? Consider COc1ccc2c(c1)C1CC2CC1N (stereo not drawn)
NO

Is pKi at least 3? Consider COc1cccc2c1CC(N)CC2 (stereo not drawn)
YES

----------
# targetUnderTest: Phenylethanolamine N-methyltransferase (Bos taurus)
# Sequence (P10938 whole entry): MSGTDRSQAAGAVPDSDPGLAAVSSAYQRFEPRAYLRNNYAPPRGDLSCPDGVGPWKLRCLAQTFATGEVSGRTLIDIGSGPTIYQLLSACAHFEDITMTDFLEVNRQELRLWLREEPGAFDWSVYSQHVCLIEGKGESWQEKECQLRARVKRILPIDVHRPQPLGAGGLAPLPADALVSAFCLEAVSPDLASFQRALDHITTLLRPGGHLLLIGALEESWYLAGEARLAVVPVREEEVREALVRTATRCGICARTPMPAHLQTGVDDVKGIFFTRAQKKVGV
# testDescription: In vitro inhibitory activity against bovine phenylethanolamine N-methyl-transferase
compounds and their reported pKi
Note on pKi: it is the negative log10 of concentration, concentration in mol/L.

Some solved cases for reference:
- compound: "COc1cccc2c1CCC(N)C2 (stereo not given)"
  targetUnderTest: "Phenylethanolamine N-methyltransferase (Bos taurus)"
  readoutValue: 3.80
- compound: "NCCc1ccccc1"
  targetUnderTest: "Phenylethanolamine N-methyltransferase (Bos taurus)"
  readoutValue: 3.07
- compound: "COc1cccc2c1C1CCC(N)(C2)C1 (stereo not given)"
  targetUnderTest: "Phenylethanolamine N-methyltransferase (Bos taurus)"
  readoutValue: 2.07

Can you share its pKi? I mean this compound: NC1CCc2cccc(O)c2C1 (stereo not given)
4.41
